B1: CPEB3 Ribozyme (parent)
chain: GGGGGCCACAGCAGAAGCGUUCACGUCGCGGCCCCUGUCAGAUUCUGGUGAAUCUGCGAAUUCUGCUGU

Variants of: B1
Protocol text: self-cleavage, relative activity (ratio to wild type); higher = more cleavage; co-transcriptional
Classify by measured self-cleavage: t if it is equal to or exceeds 0.5, f if it is smaller.

> print(dat)
    mutations  label
 1  U67A U69C      t
 2  G30U A40G      f
 3   C7A A16U      f
 4  C22U C35U      f
 5  C29U G50U      t
 6   G1U C32G      f
 7  U38A A52G      t
 8   C6U C66A      t
 9  A23G C45G      t
10  A15U G47C      t
11  C32G G47C      t
12   G2C A59U      f
13  A23G U69C      t
14  A16C C39A      f
15   G2A A51G      f
16    G3A G5U      f
17  A15U U36G      f
18  C54G C66U      t
19  G11C U67C      t
20  U64C U69C      t
